# Assayed target: T1, Human CD3eg linker (human)
# T1 construct: Single chain: epsilon and gamma subunits of human CD3 joined by a 29-mer linker, Flag-tag at the C-terminus; also called recombinant human CD3
# T1 chain: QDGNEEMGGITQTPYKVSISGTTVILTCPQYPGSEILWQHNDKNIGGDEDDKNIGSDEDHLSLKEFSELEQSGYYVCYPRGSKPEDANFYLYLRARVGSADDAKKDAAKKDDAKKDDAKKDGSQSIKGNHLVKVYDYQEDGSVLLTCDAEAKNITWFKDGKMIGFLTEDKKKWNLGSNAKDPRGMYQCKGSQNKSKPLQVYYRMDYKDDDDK
# Test description: Biacore SPR, vs template H183/L072
Item-by-item account of fold change of affinity
Write the value in fold as a bare number.

Binder	Meas value
H183/L072 VH Y55T (antibody, name in Kabat numbering, V domains shown) VH: QVQLVESGGGLVQPGRSLRLSCAASGFTFSNAWMHWVRQAPGKGLEWVAQIKDKGNATAAYYAPSVKGRFTISRDDSKNSIYLQMNSLKTEDTAVYYCHYVHYASASTVLPAFGVDAWGQGTTVTVSS VL: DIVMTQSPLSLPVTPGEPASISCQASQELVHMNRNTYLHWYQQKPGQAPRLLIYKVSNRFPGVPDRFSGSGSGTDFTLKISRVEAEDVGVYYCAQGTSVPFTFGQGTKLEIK	0
H183/L072 VH K52bP (antibody, name in Kabat numbering, V domains shown) VH: QVQLVESGGGLVQPGRSLRLSCAASGFTFSNAWMHWVRQAPGKGLEWVAQIKDPGNAYAAYYAPSVKGRFTISRDDSKNSIYLQMNSLKTEDTAVYYCHYVHYASASTVLPAFGVDAWGQGTTVTVSS VL: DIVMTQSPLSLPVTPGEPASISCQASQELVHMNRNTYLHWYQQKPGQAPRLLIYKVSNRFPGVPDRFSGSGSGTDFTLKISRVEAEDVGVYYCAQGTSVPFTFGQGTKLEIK	0.5
H183/L072 VH Y97P (antibody, name in Kabat numbering, V domains shown) VH: QVQLVESGGGLVQPGRSLRLSCAASGFTFSNAWMHWVRQAPGKGLEWVAQIKDKGNAYAAYYAPSVKGRFTISRDDSKNSIYLQMNSLKTEDTAVYYCHYVHPASASTVLPAFGVDAWGQGTTVTVSS VL: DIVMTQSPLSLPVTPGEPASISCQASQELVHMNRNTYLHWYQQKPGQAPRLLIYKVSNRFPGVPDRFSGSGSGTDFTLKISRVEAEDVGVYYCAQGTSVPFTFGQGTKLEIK	0
H183/L072 VH D52aL (antibody, name in Kabat numbering, V domains shown) VH: QVQLVESGGGLVQPGRSLRLSCAASGFTFSNAWMHWVRQAPGKGLEWVAQIKLKGNAYAAYYAPSVKGRFTISRDDSKNSIYLQMNSLKTEDTAVYYCHYVHYASASTVLPAFGVDAWGQGTTVTVSS VL: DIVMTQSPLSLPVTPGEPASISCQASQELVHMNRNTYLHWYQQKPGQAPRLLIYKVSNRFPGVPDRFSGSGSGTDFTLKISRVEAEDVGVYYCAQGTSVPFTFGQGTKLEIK	0
H183/L072 VH S62A (antibody, name in Kabat numbering, V domains shown) VH: QVQLVESGGGLVQPGRSLRLSCAASGFTFSNAWMHWVRQAPGKGLEWVAQIKDKGNAYAAYYAPAVKGRFTISRDDSKNSIYLQMNSLKTEDTAVYYCHYVHYASASTVLPAFGVDAWGQGTTVTVSS VL: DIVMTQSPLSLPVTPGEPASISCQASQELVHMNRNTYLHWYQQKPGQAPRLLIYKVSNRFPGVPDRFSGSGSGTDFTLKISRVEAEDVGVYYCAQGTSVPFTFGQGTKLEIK	1.4
H183/L072 VH D52aG (antibody, name in Kabat numbering, V domains shown) VH: QVQLVESGGGLVQPGRSLRLSCAASGFTFSNAWMHWVRQAPGKGLEWVAQIKGKGNAYAAYYAPSVKGRFTISRDDSKNSIYLQMNSLKTEDTAVYYCHYVHYASASTVLPAFGVDAWGQGTTVTVSS VL: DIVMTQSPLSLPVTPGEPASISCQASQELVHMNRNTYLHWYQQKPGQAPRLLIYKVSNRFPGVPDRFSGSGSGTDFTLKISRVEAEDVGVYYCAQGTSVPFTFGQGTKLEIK	0.2
H183/L072 VH F29D (antibody, name in Kabat numbering, V domains shown) VH: QVQLVESGGGLVQPGRSLRLSCAASGFTDSNAWMHWVRQAPGKGLEWVAQIKDKGNAYAAYYAPSVKGRFTISRDDSKNSIYLQMNSLKTEDTAVYYCHYVHYASASTVLPAFGVDAWGQGTTVTVSS VL: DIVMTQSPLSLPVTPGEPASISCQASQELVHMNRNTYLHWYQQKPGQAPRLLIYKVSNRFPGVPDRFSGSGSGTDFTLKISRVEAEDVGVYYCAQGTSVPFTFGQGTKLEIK	0
H183/L072 VH K52bY (antibody, name in Kabat numbering, V domains shown) VH: QVQLVESGGGLVQPGRSLRLSCAASGFTFSNAWMHWVRQAPGKGLEWVAQIKDYGNAYAAYYAPSVKGRFTISRDDSKNSIYLQMNSLKTEDTAVYYCHYVHYASASTVLPAFGVDAWGQGTTVTVSS VL: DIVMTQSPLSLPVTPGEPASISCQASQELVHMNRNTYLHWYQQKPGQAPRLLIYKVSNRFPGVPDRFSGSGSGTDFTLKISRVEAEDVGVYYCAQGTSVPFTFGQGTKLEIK	0.7

Memo: H183/L072 VH M34V (antibody, name in Kabat numbering, V domains shown) VH: QVQLVESGGGLVQPGRSLRLSCAASGFTFSNAWVHWVRQAPGKGLEWVAQIKDKGNAYAAYYAPSVKGRFTISRDDSKNSIYLQMNSLKTEDTAVYYCHYVHYASASTVLPAFGVDAWGQGTTVTVSS VL: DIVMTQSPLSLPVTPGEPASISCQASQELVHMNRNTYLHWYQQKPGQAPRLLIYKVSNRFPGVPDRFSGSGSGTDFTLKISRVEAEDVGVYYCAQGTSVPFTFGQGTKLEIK , reported fold change of affinity: 0.1

Memo: H183/L072 VH S30M (antibody, name in Kabat numbering, V domains shown) VH: QVQLVESGGGLVQPGRSLRLSCAASGFTFMNAWMHWVRQAPGKGLEWVAQIKDKGNAYAAYYAPSVKGRFTISRDDSKNSIYLQMNSLKTEDTAVYYCHYVHYASASTVLPAFGVDAWGQGTTVTVSS VL: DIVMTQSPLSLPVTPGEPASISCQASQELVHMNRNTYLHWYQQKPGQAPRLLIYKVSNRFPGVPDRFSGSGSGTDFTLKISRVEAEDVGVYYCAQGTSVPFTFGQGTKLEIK , reported fold change of affinity: 0.7

All values here come from patent US20210388087A1.
